These measurements were taken from a flash point compilation (Sun et al. 2020).

readout: flash point

Asked: Please report the recorded flash point for CCC(C)CCO (stereo not drawn) [3-methyl-1-pentanol] .
Given back: 58 °C

Asked: // next record COC(=O)c1ccccc1 [methylbenzoate]
Given back: 80 °C

Asked: // next record CC(Cl)CO (stereo not drawn) [2-chloro-1-propanol]
Given back: 51 °C

----------
Decide by flash point: equal to or exceeding 50 °C means True, less means False.

Asked: Would you say CC(=O)CC(C)C [Isobutyl methyl ketone] shows flash point at minimum 50 °C?
Given back: False

Asked: // next record C=CCC=CC [1,4-Hexadiene]
Given back: False

Asked: // next record CC(C)(O)C#N [Acetone cyanohydrin]
Given back: True

Asked: // next record O=C1CCCC1 [Cyclopentanone]
Given back: False

Asked: // next record OCCCl [Ethylene chlorohydrin]
Given back: True

Asked: // next record C=C(C)C(=O)OCCCC [Butyl methacrylate]
Given back: True

Asked: // next record COC(C)COC(C)CO (configuration not stated) [Dipropylene glycol methyl ether]
Given back: True

Asked: // next record CC=CC=CC=O [2,4-Hexadienal]
Given back: True

Asked: // next record CCOC(=O)CC [Ethyl propionate]
Given back: False

Asked: // next record CCCCCCCC(=O)O [Octanoic acid]
Given back: True

Asked: // next record c1ccc(P(c2ccccc2)c2ccccc2)cc1 [Triphenyl phosphine]
Given back: True

Asked: // next record Cc1cccc([N+](=O)[O-])c1 [m-Nitrotoluene]
Given back: True

Asked: // next record CC(O)CO (configuration not stated) [1,2-Propanediol]
Given back: True

Asked: // next record CN(C)C [Trimethyl amine]
Given back: False

Asked: // next record CC(C)=CC(=O)C=C(C)C [Phorone]
Given back: True

Asked: // next record c1ccsc1 [Thiophene]
Given back: False

Asked: // next record C=CC(=O)OC [Methyl acrylate]
Given back: False

Asked: // next record Cc1ccncc1 [4-Picoline]
Given back: True

Asked: // next record Oc1ccc(Cl)cc1Cl [2,4-Dichlorophenol]
Given back: True

Asked: // next record Cc1ccccc1N [o-Toluidine]
Given back: True

Asked: // next record CCCc1ccccc1 [Propyl benzene]
Given back: False

Asked: // next record CCCC(=O)Nc1ccccc1 [Ethyl acetanilide]
Given back: True

Asked: // next record CC(=O)Nc1ccccc1 [Acetanilide]
Given back: True

Asked: // next record CCCCOC(=O)c1ccccc1C(=O)OCCCC [Dibutyl phthalate]
Given back: True

Asked: // next record c1ccc2ccccc2c1 [Naphthalene]
Given back: True

Asked: // next record CC(C)CCO[N+](=O)[O-] [iso-Amyl nitrate]
Given back: True
